tested on: LOX IMVI melanoma; experiment: NCI tumour cell line growth inhibition, 48 h
Assign TGI to each entry below.
Hi! Could you send only the number? It should be in µM, unit omitted.

What value of measured TGI is listed for "N=C1C=CC(=C(c2ccc(N)cc2)c2ccc(N)cc2)C=C1" ?
15.4

What value of measured TGI is listed for "CCC[CH2][Sn]1([CH2]CCC)[O]C(=O)c2cccc([N+](=O)[O-])c2C(=O)[O]1" ?
0.7

What value of measured TGI is listed for "C=C(C)C1(Sc2ccc(OC)cc2)CC1" ?
33.4

What value of measured TGI is listed for "COc1ccc2c3ccnc(C(F)(F)F)c3n(CCCCN)c2c1" ?
17

What value of measured TGI is listed for NC1CC(=O)c2c(-c3cccs3)sc(-c3cccs3)c21 (configuration not stated) ?
29

----------
test system: NCI/ADR-RES ovarian; experiment: NCI tumour cell line growth inhibition, 48 h; in the data active = GI50 below about 0.43 µM; inactive = the rest
// allowed return values: TRUE = active, FALSE = inactive

Hi, do you know how "CN(C(=O)C(C)(C)C)c1ccccc1I(=O)=O" came out in this test?
FALSE

Hi, do you know how "COc1nn(C)cc1Nc1nccc(-c2c[nH]c3c(NC(=O)[C@@H](C)N4CCN(C)CC4)cccc23)n1" came out in this test?
FALSE

Hi, do you know how "CCN1CCN(C(=O)[C@]23CC[C@@H](C)[C@H](C)[C@@H]2C2=CC[C@@H]4[C@@]5(C)CCC(=O)C(C)(C)[C@@H]5CC[C@@]4(C)[C@]2(C)CC3)CC1" came out in this test?
FALSE

Hi, do you know how COc1cc2c(cc1OCC(=O)Nc1ccc(Cl)cc1C(=O)c1ccccc1Cl)N=CC1CCCN1C2=O (stereo not given) came out in this test?
FALSE

Hi, do you know how "Cc1cc(OCc2ccc(C(F)(F)F)cc2)c2c(c1)C(=O)C=C(NCCN1CCCC1)C2=O" came out in this test?
FALSE

Hi, do you know how "Clc1cnc(Nc2ccc(OCCN3CCCC3)cc2)nc1NCc1ccco1" came out in this test?
FALSE

Hi, do you know how "Nc1ccc(C#Cc2ccccc2C#CCCCCO)cc1" came out in this test?
FALSE

Hi, do you know how "NS(=O)(=O)c1ccc(-n2nc3c(c2-c2cccs2)Cc2ccccc2-3)cc1" came out in this test?
FALSE

Hi, do you know how "COC(=O)Nc1nc2ccc(C(=O)c3cccc(I)c3)cc2[nH]1" came out in this test?
TRUE

Hi, do you know how "O=C(Nc1ccc(Cl)c(Cl)c1)c1ccc(NC2=C(Cl)C(=O)N(Cc3ccccc3)C2=O)cc1" came out in this test?
FALSE

----------
tested on: DLD-1 colon; test: NCI tumour cell line growth inhibition, 48 h
Where a SMILES comes first, the peptide text is derived from it. [ ]: non-standard residue; d: D form.
READOUT KIND: TGI

What value of measured TGI is listed for O=C(NC1CCC[C@H]1OC(=O)c1ccccc1)c1ccccc1 (some centres not stated) ?
> 100 µM

What value of measured TGI is listed for "CC1(C)CC(=O)C(CC2C(=O)CCCC2=O)C(=O)C1" ?
> 100 µM

What value of measured TGI is listed for CCC(=O)OCOc1ccc(/C=C2\CCC(CN(C)C)C2=O)cc1 (configuration not stated) ?
5.54 µM

What value of measured TGI is listed for "O=S(=O)(O)c1cc(S(=O)(=O)O)c2cc(N=Nc3ccc(N=Nc4ccc(/C=C/c5ccc(N=[N+]([O-])c6ccc(/C=C/c7ccc(N=Nc8ccc(N=Nc9ccc%10cc(S(=O)(=O)O)cc(S(=O)(=O)O)c%10c9)cc8)cc7S(=O)(=O)O)c(S(=O)(=O)O)c6)cc5S(=O)(=O)O)c(S(=O)(=O)O)c4)cc3)ccc2c1" ?
> 100 µM

What value of measured TGI is listed for "NC(=O)NNC/C(Cl)=C(\Cl)C(=O)O" ?
> 100 µM

What value of measured TGI is listed for "N=C1C=CC(=C(c2ccc(N)cc2)c2ccc(N)cc2)C=C1" ?
> 100 µM

What value of measured TGI is listed for "Cc1ccc(/C=C2\CCCCC2=O)cc1" ?
> 100 µM

What value of measured TGI is listed for CCC(O)CCCCCCCCCCCCCCC(=O)O (configuration not stated) ?
> 100 µM

What value of measured TGI is listed for COc1cc2c(cc1OC)C(Cl)C(c1ccc(Br)cc1)=C2Cl (configuration not stated) ?
27.6 µM

What value of measured TGI is listed for CCO/C=C\C12CCCC1NC(c1ccccc1)(c1ccccc1)O2 (configuration not stated) ?
> 100 µM

What value of measured TGI is listed for CCCCCCCCCC1CC(=O)OC2=C1C(=O)CCC2 (configuration not stated) ?
> 100 µM

What value of measured TGI is listed for "N#CC1=C(O)NC(O)=C(C#N)C1c1c(Cl)cccc1Cl" ?
58 µM

What value of measured TGI is listed for "Cc1cc(-c2ccccc2)nc(Nc2cc3ccccc3[nH]2)n1" ?
> 100 µM

What value of measured TGI is listed for CC(C)C[C@H](NC(=O)[C@H](CC(C)C)NC(=O)[C@@H](Cc1c[nH]c2ccccc12)NC(=O)[C@H](Cc1ccccc1)NC(=O)[C@@H](Cc1c[nH]c2ccccc12)NC(=O)[C@H](CCC(N)=O)NC(=O)[C@@H](CCC(N)=O)NC(=O)[C@@H]1CCCN1C(=O)[C@@H](CCCCN)NC(=O)[C@H]1CCCN1C(=O)[C@H](N)CCCN=C(N)N)C(N)=O (H-[dR][dP][dK]P[dQ]Q[dW]F[dW]LL-NH2) ?
> 100 µM

What value of measured TGI is listed for CSc1ccc(N2C(=O)C3c4[nH]c5ccccc5c4C4CCC(C(C)(C)C)CC4C3C2=O)cc1 (configuration not stated) ?
> 100 µM

What value of measured TGI is listed for "CCCCCCCCCCCCCCNCC(OC)OC" ?
28.6 µM

What value of measured TGI is listed for "COc1cc(/C=C2\[C@@H]3NC(Cc4c(OC)c(C)c(OC)c(OC)c43)C(=O)N2Cc2ccccc2)c(OC)c(C)c1OC" ?
> 100 µM

----------
system: LOX IMVI melanoma; assay: NCI tumour cell line growth inhibition, 48 h
READOUT KIND: TGI (µM)
Hi! Could you send only the number? It should be in µM, unit omitted.

Lab note: need TGI for "c1ccc2c(N=NSc3ncnc4nc[nH]c34)c3ccccc3nc2c1" on LOX IMVI melanoma, anyone have it?
7.14

Lab note: need TGI for "NC1(c2cc3ccccc3s2)CCCCCC1" on LOX IMVI melanoma, anyone have it?
43

Lab note: need TGI for "O=C1/C=C/[C@@H](O)[C@@H]2C[C@@H](O)C[C@H]2/C=C/CCC[C@H](CCO)O1" on LOX IMVI melanoma, anyone have it?
0.377

Lab note: need TGI for CC(=O)C1=C(C)N(Cc2ccccc2)C2(O)C=CC(=O)C3=C(O)c4ccccc4C(=O)C312 (stereo unspecified) on LOX IMVI melanoma, anyone have it?
4.39

Lab note: need TGI for "C[C@]12CC[C@H]3[C@@H](CC[C@]4(O)C[C@@H](O)CC[C@]34C=O)[C@@]1(O)CC[C@@H]2C1=CC(=O)OC1" on LOX IMVI melanoma, anyone have it?
2.46

Lab note: need TGI for O=C1OC(OC/C(Br)=C(\Br)COC2OC(=O)C(Cl)=C2Cl)C(Cl)=C1Cl (stereo unspecified) on LOX IMVI melanoma, anyone have it?
8.29

Lab note: need TGI for CCOP(=O)(OCC)C(Nc1ccc(Cl)cc1)c1ccc(F)cc1 (stereo unspecified) on LOX IMVI melanoma, anyone have it?
29.1

Lab note: need TGI for Cc1ccc(C)n1-c1ccccc1C1C=Cn2c(=O)oc3c(OC(C)C)c(OC(C)C)c(O)c1c32 (stereo unspecified) on LOX IMVI melanoma, anyone have it?
38.4

Lab note: need TGI for "CCC(=O)NC1=C(Cl)C(=O)C(NC(=O)CC)=C(Cl)C1=O" on LOX IMVI melanoma, anyone have it?
31.2

----------
tested on: SR leukemia; assay: NCI tumour cell line growth inhibition, 48 h; in the data active = GI50 below about 0.43 µM; inactive = the rest
// allowed return values: active, inactive

Hi, do you know how "CCC[CH2][Sn]1([CH2]CCC)[O]C(=O)c2cccc([N+](=O)[O-])c2C(=O)[O]1" came out in this test?
active

Hi, do you know how "Cc1nnc(N/N=C/c2ccc([N+](=O)[O-])o2)[nH]c1=O" came out in this test?
inactive

Hi, do you know how "CCOC(=O)C1=C(Nc2ccc(OC)cc2)C(N)=NC1=N" came out in this test?
inactive

Hi, do you know how "Cn1nc(C(F)(F)F)cc1-c1cc(Cl)c(OCc2ccc(Cl)cc2)c(-c2ccc(Cl)c(C(F)(F)F)c2)c1O" came out in this test?
inactive

Hi, do you know how "C=CCc1c(O)c(C(=O)/C=C/c2ccc(Cl)cc2)c(OC)c2ccoc12" came out in this test?
inactive

Hi, do you know how "Cc1cc(OCc2ccc(C(F)(F)F)cc2)c2c(c1)C(=O)C=C(NCCN1CCCC1)C2=O" came out in this test?
inactive

Hi, do you know how "C[C@@H]1CC[C@@H]2[C@@H]1[C@H](OC(=O)/C=C/C1CCCCC1)[C@]1(C3CCCCC3)C[C@@H](OC(=O)CO)[C@@]2(C)O1" came out in this test?
inactive

Hi, do you know how "CCCCCCC(=O)NC1=C(N2CC2)C(=O)C(NC(=O)CCCCCC)=C(N2CC2)C1=O" came out in this test?
inactive

Hi, do you know how "CN(C(=O)C(C)(C)C)c1ccccc1I(=O)=O" came out in this test?
inactive

Hi, do you know how "CCOC(=O)N1CCC(N=C2CSc3nnc(-c4cc(C(F)(F)F)cc(C(F)(F)F)c4)n3N2)CC1" came out in this test?
inactive

Hi, do you know how "COc1ccc2c3ccnc(C(F)(F)F)c3n(CCCCN)c2c1" came out in this test?
inactive

Hi, do you know how "O=C(Nc1nc2c(C(F)(F)F)cccc2s1)c1cc(Cl)ccc1O" came out in this test?
active

Hi, do you know how "CCN(CC)CCOc1nc2ccccc2c2c1-c1ccc(OC)cc1C2=O" came out in this test?
active

Hi, do you know how "COC(=O)Nc1nc2ccc(C(=O)c3cccc(I)c3)cc2[nH]1" came out in this test?
active

Hi, do you know how "CC(=O)/C=C(/C)[O-].CC(=O)/C=C(/C)[O-].CC(=O)[CH-]C(C)=O.CC(=O)[CH-]C(C)=O.[Zr+4]" came out in this test?
inactive
